# Target: T1, UNK ZnF1-6 (called full-length) (human, UniProt Q9C0B0 30-357)
# T1 sequence: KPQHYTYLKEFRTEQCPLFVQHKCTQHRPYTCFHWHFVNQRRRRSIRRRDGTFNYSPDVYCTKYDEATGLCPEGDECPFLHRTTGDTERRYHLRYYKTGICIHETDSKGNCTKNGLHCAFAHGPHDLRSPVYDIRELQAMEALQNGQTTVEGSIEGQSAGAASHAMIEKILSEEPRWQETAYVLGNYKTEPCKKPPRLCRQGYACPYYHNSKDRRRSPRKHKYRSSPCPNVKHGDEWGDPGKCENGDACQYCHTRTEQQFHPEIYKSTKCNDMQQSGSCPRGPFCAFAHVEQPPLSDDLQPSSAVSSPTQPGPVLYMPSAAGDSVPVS
# Procedure Summary: nsRBNS (natural sequence RNA bind-n-seq); RBNS binding buffer (assumed for nsRBNS): 25 mM Tris pH 7.5, 150 mM KCl, 3 mM MgCl2, 0.01% Triton X-100, 500 ug/ml BSA, 20 U/ml SUPERase-In, 4 C; UNK is unkempt and MSI1 is Musashi-1; names of the RNAs are library labels; protein concentration not given here; high values mean tight binding
Over roughly 5,800 sequences, “enrichment r” has its median near 0.68; the highest 2% begin near 11. Only a sample is shown.
Property: binding signal (enrichment R)
Write the answer as a number in enrichment R, unit excluded.

What value of measured binding signal is listed for ENSG00000124766:be:win_3951|3pUTR|ENSG00000124766|bound_else_gene|NA|bound_elsewhere_windowed (ssRNA) RNA: GGGAGUUCUACAGUCCGACGAUCGUUUGGGGGAAAAAAAAGAAAAAAUCAUGCCAGCUAAUCAUGUCAAGUUCACUGCCUGUCAGAUUGUUGAUAUAUACCUUCUGUAAAUAACUUUUUUUGAGAAGGAAAUAAAAUCAGCUGCAACAGAGGAUUGAGCAUCA ?
0.788

API: the following record is the query input.
What value of measured binding signal is listed for chr7:100033925:100034026:+|CDS|ENSG00000106261|msi1|total|mutant (ssRNA) RNA: GGGAGUUCUACAGUCCGACGAUCCAGAGCUCGGACCUCACCAAGCAUCAGAGAAUUCACACGGGGGAGAAACCCUAUGAAUGCCGUGAAUGUGGAAAAGCUUUCAACCGAAACUCAUACCUGAUUUUGCAUCGGAGAAUUCACCAACAGAGGAUUGAGCAUCA ?
0.595
